Values compiled from PubChem BioAssay (NCI).

Each record here notes measured growth.
system: UACC-257 melanoma; assay: NCI-60 one-dose screen, 48 h (100 = growth as untreated, 0 = no growth, -100 = all killed); conditions: 10 µM unless noted
The panel holds about 83,000 compounds, 20% with a hit somewhere; the sample as a whole holds those more often.
Your answer is read as %, so omit the unit and give the number.

Please review the entries below; each comes with its answer.
{"columns": ["COMPOUND", "TARGET_UNDER_TEST", "RESULT"],
 "data": [
  ["O=C(N/N=C/c1ccc(O)cc1O)c1cccnc1", "UACC-257 melanoma", -3.63],
  ["COc1nc2c(cc1S(=O)(=O)c1ccccc1)CCc1c-2cnn1Cc1ccccc1", "UACC-257 melanoma", 48.3],
  ["CN1Cc2c(cc(CN3CCCCC3)n2C)C(c2ccc(Br)cc2)C1 (stereo not given)", "UACC-257 melanoma", 13.4],
  ["COC(=O)[C@@H]1CC[C@]2(C)[C@H](CC[C@@H]3O[C@@]32C)[C@@]1(C)CC(=O)c1ccoc1", "UACC-257 melanoma", 88.4],
  ["COC1/C=C\\OC2(C)Oc3c(C)c(O)c4c(O)c(c(CN(C)CCO)c(O)c4c3C2=O)NC(=O)/C(C)=C\\C=C/C(C)C(O)C(C)C(O)C(C)C(OC(C)=O)C1C (stereo not given)", "UACC-257 melanoma", 105],
  ["COc1ccc(-c2cn3c(ccc4ccccc43)n2)cc1", "UACC-257 melanoma", 118],
  ["CCOc1ccc(Nc2nc(-c3c(C)nc4ncccn34)cs2)cc1", "UACC-257 melanoma", 78.8],
  ["CCn1cc2c(cc1=O)-c1nc3ccccc3c3ccnc(c13)C2=O", "UACC-257 melanoma", 74.2],
  ["CN1CCN(Cc2ccc(NC(=O)c3[nH]ncc3Nc3ccnc4ccsc34)cc2)CC1", "UACC-257 melanoma", 85.7]
]}

// switching to the query compound
Entry COc1ccc(C(=O)/C=C/c2c(Cl)c3c(c(OC)c2Cl)OCC(=O)N3)cc1 , UACC-257 melanoma data, growth value: 50

###

Tested on: ACHN renal
Test: NCI-60 one-dose screen, 48 h
Details: 10 µM unless noted
Method: Growth inhibition of the ACHN human tumor cell line is measured as a screen for anti-cancer activity. Cells are grown in 96 well plates and exposed to the test compound for 48 hours. Compounds are tested at a single concentration, which is 10^-5 M for most compounds. The reported endpoint is percent growth (GI% or GIPRCNT), where numbers from 0 - 100% represent growth inhibition, and numbers from -100% - 0 represent cell death. For example, a value of 40 represents 60% growth inhibition. […]
This is part of a sample that, as a whole, favours compounds with a hit. Of some 83,000 tested, about 20% had one in any assay. Activity calls are given as the source filed them. Rule for the calls: active = growth percent below 10; inactive = the rest.
Could you please pick one outcome from this set? 1 (active), -1 (inactive)

A selection of reference data follows.
{"columns": ["COMPOUND", "TARGET_UNDER_TEST", "CATEGORY_LABEL"],
 "data": [
  ["O=[N+]([O-])c1c(F)cccc1Nc1cccc(F)c1", "ACHN renal", -1],
  ["CN1CCCCC1CCN1c2ccccc2Sc2ccc(Cl)cc21 (stereo unspecified)", "ACHN renal", -1],
  ["COc1ccccc1-c1ccc2c(N)c(C(=O)c3ccc4c(c3)OCO4)sc2n1", "ACHN renal", -1],
  ["Nc1cccc(-c2nc3sccn3c2-c2ccnc(NCCCNS(=O)(=O)c3ccc(C(F)(F)F)cc3)n2)c1", "ACHN renal", 1],
  ["O=C(CN1CCN(c2cc3c(cc2F)c(=O)c(C(=O)O)cn3C2CC2)CC1)Nc1cc(=O)[nH]c(=O)[nH]1", "ACHN renal", -1]
]}

Consider the additional compound presented here.
What call does the record list for O=C1c2ccccc2-c2nccc3cc(Cl)nc1c23 ?
1

###

Each record here notes measured growth.
test system: HT29 colon; experiment: NCI-60 one-dose screen, 48 h (100 = growth as untreated, 0 = no growth, -100 = all killed); settings: 10 µM unless noted
Compounds without any hit were thinned out: in the full panel of roughly 83,000, 20% have a hit. Calls of active or inactive are those of the source. Rule for the calls: active = growth percent below 10; inactive = the rest.

{"columns": ["COMPOUND", "RESULT"],
 "data": [
  ["Cc1noc(C)c1-c1cc(O)cc(C(O)c2ccccc2)c1 (configuration not stated)", "34.6% (inactive)"],
  ["CC[C@H](CO)Nc1nc(NCc2ccccc2)n2ncc(C(C)C)c2n1", "3.07% (active)"],
  ["CNC(=O)c1cc(Oc2ccc3nc(NC(=O)Nc4ccc(CN5CCOCC5)c(C(F)(F)F)c4)sc3c2)ccn1", "45.3% (inactive)"]
]}

Entry O=C(Nc1ccc(Oc2ccc(F)cc2)c(Cl)c1)c1cccnc1 , HT29 colon data, growth value: 88.5% (inactive)

Entry Nc1ccc2c(c1)C(=O)NC2=O , HT29 colon data, growth value: 90.7% (inactive)

Entry Nc1ccc(Nc2nccc(-c3ccc4ccccc4c3)n2)cc1 , HT29 colon data, growth value: 14.3% (inactive)

Entry O=[N+]([O-])c1cccc(-c2nc3sccn3c2-c2ccnc(NCCCNS(=O)(=O)c3ccc(Br)cc3)n2)c1 , HT29 colon data, growth value: 57.1% (inactive)

###

Each record here notes measured growth.
test system: OVCAR-3 ovarian; assay: NCI-60 one-dose screen, 48 h (100 = growth as untreated, 0 = no growth, -100 = all killed); details: 10 µM unless noted
Compounds without any hit were thinned out: in the full panel of roughly 83,000, 20% have a hit.
Your answer is read as %, so omit the unit and give the number.

{"columns": ["COMPOUND", "TARGET_UNDER_TEST", "RESULT_UNITS", "RESULT"],
 "data": [
  ["O=C1/C(=C/c2ccc(F)cc2)CN(C(=O)CCN2CCC(=NO)CC2)C/C1=C\\c1ccc(F)cc1", "OVCAR-3 ovarian", "%", -60],
  ["COc1ccc(-c2cn3c(ccc4ccccc43)n2)cc1", "OVCAR-3 ovarian", "%", 89.7],
  ["O=C(CO[N+](=O)[O-])Nc1ccc(C(=O)/C=C/c2ccc3c(c2)OCO3)cc1", "OVCAR-3 ovarian", "%", 80.6],
  ["CCCCCCCCCCCCS(=O)CC(C)O (stereo unspecified)", "OVCAR-3 ovarian", "%", 120],
  ["CC#CC#Cc1cccc(=O)o1", "OVCAR-3 ovarian", "%", 7.67]
]}

Entry COc1cnc2c(c1)C(=O)c1c-2n(CCCN2CCN(C)CC2)c(=O)c2cc([N+](=O)[O-])ccc12 , OVCAR-3 ovarian data, growth value: -84.6

Entry COc1ccc2nc3cc(Cl)ccc3c(N3CCN(c4nccc(NCc5ccccc5)n4)CC3)c2c1 , OVCAR-3 ovarian data, growth value: 63.3

###

test system: KM12 colon; test: NCI-60 one-dose screen, 48 h (100 = growth as untreated, 0 = no growth, -100 = all killed); conditions: 10 µM unless noted
The panel holds about 83,000 compounds, 20% with a hit somewhere; the sample as a whole holds those more often.
Each record here notes measured growth.
Your answer is read as %, so omit the unit and give the number.

Note to self: growth recorded for COc1ccccc1N1CCN(CCn2c(=O)c3c(c4ccccc4n3C)n(C)c2=O)CC1 was 103

Note to self: growth recorded for CCOC(=O)CC(=O)c1c(C)cc(C)cc1C was 95.5

Note to self: growth recorded for COc1cc2c(cc1O)CCc1cc(O)cc(OC)c1-2 was 97.4

Note to self: growth recorded for COc1cnc2c(c1)C(=O)c1c-2n(CCCBr)c(=O)c2cc([N+](=O)[O-])ccc12 was 1.44

Note to self: growth recorded for CCN(CC)CCC(=O)c1ccc(OC)c2ccccc12 was 81.8

Note to self: growth recorded for CN1CCN(Cc2ccc(NC(=O)c3[nH]ncc3Nc3ccnc4ccsc34)cc2)CC1 was 12.3

###

test system: HCT-116 colon; test: NCI-60 one-dose screen, 48 h (100 = growth as untreated, 0 = no growth, -100 = all killed); details: 10 µM unless noted
The panel holds about 83,000 compounds, 20% with a hit somewhere; the sample as a whole holds those more often.
Definition: the class of an entry is the range in lower = under -60%, middle = from -60% up to 30%, upper = 30% and over that contains its growth.

{"columns": ["MOLECULE", "TARGET_UNDER_TEST", "CATEGORY_LABEL"],
 "data": [
  ["Cc1ccc(-c2nc(/C=N/Nc3cc(C)nc4ccc(Cl)cc34)c(C)o2)cc1", "HCT-116 colon", "middle"],
  ["C/C(=C(/c1ccc(O)cc1)c1ccc(OCCN(C)C)cc1)c1ccccc1", "HCT-116 colon", "upper"],
  ["CNC(=O)c1cc(Oc2ccc3nc(NC(=O)Nc4ccc(CN5CCOCC5)c(C(F)(F)F)c4)sc3c2)ccn1", "HCT-116 colon", "middle"]
]}

Category of O=c1c2c3c(sc2n2c(CCl)nnc2n1Cc1ccccc1)CCCC3 :
middle

Category of CCCCNC(=O)NS(=O)(=O)c1ccc(N2N=C(c3cc(C)ccc3C)CC2c2cc(OC)c(OC)c(OC)c2)cc1 (centres undefined) :
upper

Category of Clc1cccc(Nc2nc(Nc3cnc4ccccc4c3)c3[nH]cnc3n2)c1 :
upper

Category of COc1cc(C(=O)/C=C/c2c(C)n([O-])c3ccc(C)cc3[n+]2=O)cc(OC)c1OC :
middle

Category of COc1ccc(CN2C(=O)/C(=C\c3cc(OC)c(OC)c(OC)c3)c3cc(OC)ccc32)cc1 :
lower

Category of CCN1CCN(Cc2ccc(NC(=O)Nc3nc4ccc(Oc5ccnc(C(=O)NC)c5)cc4s3)cc2C(F)(F)F)CC1 :
lower
